System: HepG2
Test: cytotoxicity call (relative viability < 0.9)
Details: 10 µM
The campaign covered roughly 39,000 compounds. About 3,300 (8.5%) were called active. Shown is part of a subset that was picked to be rich in actives.
API: response.call in active, inactive

Past entries and their recorded results:
compoundStructureString | label
Cc1cc(C)c(N(Cc2ccccc2)S(=O)(=O)c2ccc(OCCNC(=O)c3cc4ccccc4o3)cc2)c(C(=O)NO)c1 | active
CC(C)C[C@@H]1NC(=O)[C@@H](C(C)C)NC(=O)[C@@H]2CCCN2C(=O)[C@@H](CC(=O)O)NC(=O)[C@@H](Cc2c[nH]c3ccccc23)NC1=O | inactive
C[C@H]1CCCCO[C@H](CN(C)Cc2ccc(Cl)c(Cl)c2)[C@@H](C)CN([C@@H](C)CO)C(=O)c2cc(NS(C)(=O)=O)ccc2O1 | inactive
C[C@@H]1CN([C@@H](C)CO)C(=O)c2cc(C#Cc3ccncc3)cnc2O[C@@H]1CN(C)S(=O)(=O)c1ccccc1F | inactive
COCC(=O)N1C[C@H](C)[C@H](OC)CN(C)C(=O)c2cc(NC(=O)Nc3ccccc3)ccc2OC[C@H]1C | inactive

Ask: # lookup: test call for "C[C@@H]1CN([C@H](C)CO)C(=O)c2cc(C#Cc3ccncc3)cnc2O[C@H]1CN(C)S(=O)(=O)c1ccccc1F"
Result: inactive

Ask: Entry "C[C@@H]1CN([C@H](C)CO)C(=O)c2cc(C#Cc3cccnc3)cnc2O[C@@H]1CN(C)S(=O)(=O)c1ccccc1F" : call = ?
Result: inactive

Ask: Tell me the assay call for "COc1ccccc1CNC(=O)C[C@H]1C[C@@H]2c3cc(NC(=O)c4ccc5c(c4)OCO5)ccc3O[C@@H]2[C@H](CO)O1" please.
Result: inactive

====

Test system: HepG2
Test: cytotoxicity call (relative viability < 0.9)
Conditions: 10 µM
Among all 39,000 compounds or so, about 3,300 (8.5%) were called active. This excerpt belongs to a sample that is enriched for actives.
measuredAttribute: cytotoxicity call

Record excerpt, results attached:
compoundStructureString | result
CN(C)CCCNC(=O)C[C@@H]1CC[C@H]2[C@@H](COc3ccc(NC(=O)c4cccc(F)c4)cc3C(=O)N2C)O1 | inactive
c1ccc(-c2nc(C34CC5CC(CC(C5)C3)C4)cs2)cc1 | inactive
O=C1CC[C@@H](C(=O)N2CSC[C@H]2C(=O)O)N1 | inactive
C[C@@H]1CCCCO[C@H](CN(C)C(=O)CCC(F)(F)F)[C@@H](C)CN([C@H](C)CO)C(=O)c2cc(NC(=O)CCC(F)(F)F)ccc2O1 | inactive

Attention now shifts to the item below.
Ask: Quick one: cytotoxicity call of "CC(C)(C)N1C[C@H](C(=O)O)CC1=O" ?
Result: inactive

====

Tested on: HepG2
Assay: cytotoxicity call (relative viability < 0.9)
Settings: 10 µM
In all, about 39,000 compounds went through this assay and about 3,300 (8.5%) were called active. Only a selection was taken, and actives are over-represented in it overall.
Choose the fitting class; nothing outside active, inactive is accepted.

compoundStructureString | label
NNC(=O)c1cccc(C(=O)NO)c1 | inactive
C[C@@H]1CCCCO[C@H](CN(C)C(=O)C2CCCCC2)[C@@H](C)CN([C@H](C)CO)C(=O)c2cc(NC(=O)c3ccncc3)ccc2O1 | inactive
Cc1ccc(S(=O)(=O)N(C)C[C@H]2Oc3ccc(NS(=O)(=O)c4c(C)noc4C)cc3C(=O)N([C@H](C)CO)C[C@@H]2C)cc1 | inactive
COCC#Cc1ccc2c(c1)O[C@@H](CN(C)C(=O)c1ccccc1F)[C@@H](C)CN([C@@H](C)CO)S2(=O)=O | inactive
COc1ccc2nc3cc(Cl)ccc3c(Nc3cc(CN4CCCC4)c(O)c(CN4CCCC4)c3)c2n1.O=P(O)(O)O.O=P(O)(O)O.O=P(O)(O)O.O=P(O)(O)O | active

Ask: State the result this test recorded for "CCCNC(=O)N1C[C@H](O)COC[C@@H]2O[C@@H](CC(=O)N3CCOCC3)CC[C@H]21" .
Result: inactive

Ask: Could you kindly confirm the outcome this assay logged for "C[C@H]1CCCCO[C@H](CN(C)C(=O)NC2CCCCC2)[C@@H](C)CN([C@@H](C)CO)C(=O)c2cc(NC(=O)c3ccncc3)ccc2O1" ?
Result: inactive

Ask: I'd appreciate the recorded outcome for "C[C@@H]1CN([C@H](C)CO)C(=O)CCCn2nncc2CO[C@@H]1CN(C)S(=O)(=O)c1cccc(C#N)c1" from this test.
Result: inactive

Ask: Fill in: this test's call for "C[C@H](CO)N1C[C@H](C)[C@H](CN(C)Cc2ccc(-c3ccccc3)cc2)Oc2ccc(NC(=O)Nc3ccc(F)cc3)cc2CC1=O" is ___
Result: active

Ask: Could you kindly confirm the outcome this assay logged for "COCCC(=O)N1C[C@H]2CN(c3cnn(C)c3)C(=O)[C@@H]2C1" ?
Result: inactive

Source: the antibiotic and cytotoxicity screens of Wong et al. (2023)
